Cited source for all entries: patent US12466831B2

# EXPERIMENTAL TARGET: human A2a adenosine receptor (Homo sapiens, UniProt P29274)
# Construct: purchased Perkin Elmer RBHA2aM400UA; host or cells: HEK293 or CHO cells (recombinant expression)
# Sequence (P29274 whole entry): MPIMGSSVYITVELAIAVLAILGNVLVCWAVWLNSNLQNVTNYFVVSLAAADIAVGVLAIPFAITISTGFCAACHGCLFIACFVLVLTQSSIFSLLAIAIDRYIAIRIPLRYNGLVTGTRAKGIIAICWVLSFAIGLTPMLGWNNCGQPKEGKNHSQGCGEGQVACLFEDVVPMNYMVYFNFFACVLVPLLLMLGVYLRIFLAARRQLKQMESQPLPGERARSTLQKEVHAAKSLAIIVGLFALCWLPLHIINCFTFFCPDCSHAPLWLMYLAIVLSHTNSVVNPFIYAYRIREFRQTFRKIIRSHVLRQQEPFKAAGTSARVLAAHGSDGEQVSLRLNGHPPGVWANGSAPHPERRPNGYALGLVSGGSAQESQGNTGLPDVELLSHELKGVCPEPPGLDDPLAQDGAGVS
# ASSAY OVERVIEW: A2a binding affinity using radioligand binding, Method (A)
# PARTICULARS: Method (A): [3H]SCH58261 filtration binding, membranes expressing human A2a
Exercise: state measured pIC50 for each of the molecules provided.
Just the number, please; pIC50 means minus log10 of the concentration in mol/L.

Enter reported pIC50 observed with human A2a adenosine receptor (Homo sapiens, UniProt P29274) for Cc1c(-c2ncco2)nc(N)n2nc([C@H]3C[C@@H](O)C3)nc12 [Example 2.8]
7.14

Enter reported pIC50 observed with human A2a adenosine receptor (Homo sapiens, UniProt P29274) for Cc1c(-c2cccc(F)c2)nc(N)c2nc(C3CCCC(C)(O)C3)nn12 (single isomer, unassigned) [Example 8.10-2]
6.44

Enter reported pIC50 observed with human A2a adenosine receptor (Homo sapiens, UniProt P29274) for Cc1c(-c2cccc(F)c2)nc(N)n2nc([C@@H]3CCCNC3)nc12 [Example 2.4]
7.24

Enter reported pIC50 observed with human A2a adenosine receptor (Homo sapiens, UniProt P29274) for Cc1c(-c2ncco2)nc(N)c2nc(C3CCCC(C)(O)C3)nn12 (single isomer, unassigned) [Example 8.5]
6.58

Enter reported pIC50 observed with human A2a adenosine receptor (Homo sapiens, UniProt P29274) for Cc1c(-c2ncco2)nc(N)c2nc([C@H]3CCCN(c4cnn(C)c4)C3)nn12 (single isomer, unassigned) [Example 2.5-2]
7.43

Enter reported pIC50 observed with human A2a adenosine receptor (Homo sapiens, UniProt P29274) for Cc1c(-c2ncco2)nc(N)n2nc([C@H]3C[C@H](c4ccc(C(C)(C)N)nc4)C3)nc12 [Example 10.6]
7.80

Enter reported pIC50 observed with human A2a adenosine receptor (Homo sapiens, UniProt P29274) for Cc1c(-c2ncco2)nc(N)n2nc([C@@H]3CCCN(c4cnn(CC(F)(F)F)c4)C3)nc12 [Example 3.5]
8.89

Enter reported pIC50 observed with human A2a adenosine receptor (Homo sapiens, UniProt P29274) for Cc1c(-c2ncco2)nc(N)n2nc([C@@H]3CCCN(c4cnn(CC(C)(C)O)c4C)C3)nc12 [Example 3.10]
8.68

Enter reported pIC50 observed with human A2a adenosine receptor (Homo sapiens, UniProt P29274) for Cc1c(-c2ncco2)nc(N)c2nc([C@@H]3CCCN(c4cnn(C)c4)C3)nn12 (single isomer, unassigned) [Example 2.5-1]
7.83

Enter reported pIC50 observed with human A2a adenosine receptor (Homo sapiens, UniProt P29274) for Cc1c(-c2cccc(F)c2)nc(Br)c2nc([C@H]3C[C@@H]3C(C)(C)O)nn12 (mixture of isomers) [Example 1.2]
7.63

Enter reported pIC50 observed with human A2a adenosine receptor (Homo sapiens, UniProt P29274) for Cc1c(-c2cccc(F)c2)nc(N)c2nc(C3CCC(C)(O)C3)nn12 (single isomer, unassigned) [Example 8.8]
7.15

Enter reported pIC50 observed with human A2a adenosine receptor (Homo sapiens, UniProt P29274) for Cc1c(-c2ncco2)nc(N)n2nc([C@@H]3CCCN(c4cnn(C(C)C(C)(C)O)c4)C3)nc12 (single isomer, unassigned) [Example 2.10]
8.92

Enter reported pIC50 observed with human A2a adenosine receptor (Homo sapiens, UniProt P29274) for Cc1c(-c2ncco2)nc(N)n2nc([C@@H]3CC[C@H](C)NC3)nc12 [Example 2.9]
6.89

Enter reported pIC50 observed with human A2a adenosine receptor (Homo sapiens, UniProt P29274) for Cc1c(-c2ncco2)nc(N)n2nc([C@@H]3CCCN(c4cnn(C(C)C(C)(C)O)c4)C3)nc12 (single isomer, unassigned) [Example 2.11]
8.49
